# subject.of.test: PKBb (Homo sapiens)
# experimental.details: Kinase profiling PKBb
# Assay type: biochemical
# condition.details: read-out: residual kinase activity, PKBb
measure: remaining activity at 100 µM (%)

{"columns": ["structure", "subject.of.test", "measure", "numeric.result"],
 "data": [
  ["COc1ccc2sc(NC(C)=O)nc2c1", "PKBb (Homo sapiens)", "remaining activity at 100 µM", 92],
  ["CC(=O)Nc1nc2ccc(O)cc2s1", "PKBb (Homo sapiens)", "remaining activity at 100 µM", 57],
  ["CC(=O)Nc1nc2cc(F)ccc2s1", "PKBb (Homo sapiens)", "remaining activity at 100 µM", 93],
  ["CC(=O)Nc1nc2cc(C(F)(F)F)ccc2s1", "PKBb (Homo sapiens)", "remaining activity at 100 µM", 104],
  ["CC(=O)Nc1nc2ccc(C#N)cc2s1", "PKBb (Homo sapiens)", "remaining activity at 100 µM", 98],
  ["CC(=O)Nc1nc2ccc(C(F)(F)F)cc2s1", "PKBb (Homo sapiens)", "remaining activity at 100 µM", 100]
]}

###

# subject.of.test: IR (Homo sapiens)
# Sequence (P06213 28-1382): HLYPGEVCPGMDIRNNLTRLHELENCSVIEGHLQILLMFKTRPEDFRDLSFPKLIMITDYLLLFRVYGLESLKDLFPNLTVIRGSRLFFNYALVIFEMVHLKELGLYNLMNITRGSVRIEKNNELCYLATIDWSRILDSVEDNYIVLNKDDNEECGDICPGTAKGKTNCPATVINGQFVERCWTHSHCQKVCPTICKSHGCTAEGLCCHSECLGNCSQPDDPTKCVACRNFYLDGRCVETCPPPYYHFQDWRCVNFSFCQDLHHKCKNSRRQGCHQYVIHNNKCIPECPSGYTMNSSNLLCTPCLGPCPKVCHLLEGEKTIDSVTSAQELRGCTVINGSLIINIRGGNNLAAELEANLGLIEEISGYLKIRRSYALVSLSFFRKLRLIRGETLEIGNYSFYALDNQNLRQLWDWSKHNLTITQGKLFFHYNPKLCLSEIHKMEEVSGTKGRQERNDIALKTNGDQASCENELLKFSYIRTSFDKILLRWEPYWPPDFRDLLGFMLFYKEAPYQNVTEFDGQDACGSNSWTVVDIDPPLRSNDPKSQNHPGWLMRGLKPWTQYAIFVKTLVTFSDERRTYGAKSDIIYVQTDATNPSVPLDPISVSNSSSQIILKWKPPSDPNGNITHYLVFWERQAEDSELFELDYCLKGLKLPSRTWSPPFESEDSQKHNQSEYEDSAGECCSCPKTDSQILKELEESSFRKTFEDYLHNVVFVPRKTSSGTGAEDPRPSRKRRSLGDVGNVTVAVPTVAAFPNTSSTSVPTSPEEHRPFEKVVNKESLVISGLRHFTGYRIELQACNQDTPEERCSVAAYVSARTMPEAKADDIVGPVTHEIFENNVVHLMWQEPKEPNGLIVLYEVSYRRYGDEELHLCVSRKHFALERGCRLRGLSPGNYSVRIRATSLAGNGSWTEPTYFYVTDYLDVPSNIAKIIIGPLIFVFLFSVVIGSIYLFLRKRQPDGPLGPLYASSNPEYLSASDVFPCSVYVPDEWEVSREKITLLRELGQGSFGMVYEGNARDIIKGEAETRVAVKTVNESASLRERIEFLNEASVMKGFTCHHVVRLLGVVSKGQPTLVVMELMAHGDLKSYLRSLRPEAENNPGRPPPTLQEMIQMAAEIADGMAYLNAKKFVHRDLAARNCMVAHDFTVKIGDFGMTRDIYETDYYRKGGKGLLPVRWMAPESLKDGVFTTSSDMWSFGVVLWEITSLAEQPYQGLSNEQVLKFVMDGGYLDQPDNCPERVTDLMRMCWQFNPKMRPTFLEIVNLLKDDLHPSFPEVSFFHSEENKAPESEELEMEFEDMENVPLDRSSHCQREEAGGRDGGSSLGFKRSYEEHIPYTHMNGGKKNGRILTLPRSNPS
# experimental.details: Kinase profiling IR
# Assay type: biochemical
# condition.details: 100 micromolar inhibitor concentration; 100 is no change
residual kinase activity, IR overview

{"columns": ["molecule", "residual kinase activity, IR"],
 "data": [
  ["CC(=O)Nc1nc2cc(C)ccc2s1 [Compound 03-76]", 97],
  ["O=C(Nc1nc2ccc(O)cc2s1)c1ccccn1 [Compound 03-12]", 27],
  ["O=C(Nc1nc2cc(O)ccc2s1)c1cccnc1 [Compound 03-33]", 105]
]}

###

residual kinase activity, Lck overview
# subject.of.test: Lck (Homo sapiens, UniProt P06239)
# Sequence (P06239 whole entry, species assumed): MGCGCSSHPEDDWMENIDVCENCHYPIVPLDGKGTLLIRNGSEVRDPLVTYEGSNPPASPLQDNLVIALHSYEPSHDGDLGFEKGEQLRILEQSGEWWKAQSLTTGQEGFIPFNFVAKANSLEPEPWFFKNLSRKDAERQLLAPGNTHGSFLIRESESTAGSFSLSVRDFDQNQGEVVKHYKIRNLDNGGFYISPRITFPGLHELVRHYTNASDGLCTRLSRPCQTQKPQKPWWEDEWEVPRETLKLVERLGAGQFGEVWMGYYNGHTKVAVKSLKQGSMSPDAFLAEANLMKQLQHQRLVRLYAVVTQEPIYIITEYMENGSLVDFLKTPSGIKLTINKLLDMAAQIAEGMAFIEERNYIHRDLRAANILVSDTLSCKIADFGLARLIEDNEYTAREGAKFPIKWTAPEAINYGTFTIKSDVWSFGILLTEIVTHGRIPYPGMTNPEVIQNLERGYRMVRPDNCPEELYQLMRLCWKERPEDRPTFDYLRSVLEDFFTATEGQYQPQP
# experimental.details: Kinase profiling Lck
# Assay type: biochemical
# condition.details: 100 micromolar inhibitor concentration; 100 is no change
measure: residual kinase activity, Lck

{"columns": ["molecule", "measure", "numeric.result"],
 "data": [
  ["O=C(Nc1nc2ccc(F)cc2s1)c1ccccc1 [Compound 03-92]", "residual kinase activity, Lck", 102],
  ["CC(=O)Nc1nc2cc(C)ccc2s1 [Compound 03-76]", "residual kinase activity, Lck", 120],
  ["O=C(Nc1nc2ccc(O)cc2s1)c1ccccc1 [Compound 03-60]", "residual kinase activity, Lck", 92],
  ["COc1ccc2nc(NC(=O)c3ccccc3)sc2c1 [Compound 03-98]", "residual kinase activity, Lck", 93],
  ["O=C(Nc1nc2cc(O)ccc2s1)c1ccncc1 [Compound 03-11]", "residual kinase activity, Lck", 93],
  ["COC(=O)c1cccc(C(=O)Nc2nc3cc(OC)ccc3s2)c1 [Compound 03-108]", "residual kinase activity, Lck", 100],
  ["CC(=O)Nc1nc2ccc(F)cc2s1 [Compound 03-94]", "residual kinase activity, Lck", 92],
  ["O=C(Nc1nc2cc(O)ccc2s1)c1ccccn1 [Compound 03-13]", "residual kinase activity, Lck", 77],
  ["CC(=O)Nc1nc2ccccc2s1 [Compound 03-32]", "residual kinase activity, Lck", 91],
  ["O=C(Nc1nc2cc(O)ccc2s1)c1cccnc1 [Compound 03-33]", "residual kinase activity, Lck", 105],
  ["O=C(Nc1nc2ccc(O)cc2s1)c1cccnc1 [Compound 08-44]", "residual kinase activity, Lck", 82],
  ["O=C(Nc1nc2cc(O)ccc2s1)c1ccccc1 [Compound 03-102]", "residual kinase activity, Lck", 98],
  ["N#Cc1ccc2nc(NC(=O)c3ccccc3)sc2c1 [Compound 03-106]", "residual kinase activity, Lck", 95]
]}

###

# subject.of.test: MST2 (Homo sapiens, UniProt Q13188)
# Sequence (Q13188 whole entry, species assumed): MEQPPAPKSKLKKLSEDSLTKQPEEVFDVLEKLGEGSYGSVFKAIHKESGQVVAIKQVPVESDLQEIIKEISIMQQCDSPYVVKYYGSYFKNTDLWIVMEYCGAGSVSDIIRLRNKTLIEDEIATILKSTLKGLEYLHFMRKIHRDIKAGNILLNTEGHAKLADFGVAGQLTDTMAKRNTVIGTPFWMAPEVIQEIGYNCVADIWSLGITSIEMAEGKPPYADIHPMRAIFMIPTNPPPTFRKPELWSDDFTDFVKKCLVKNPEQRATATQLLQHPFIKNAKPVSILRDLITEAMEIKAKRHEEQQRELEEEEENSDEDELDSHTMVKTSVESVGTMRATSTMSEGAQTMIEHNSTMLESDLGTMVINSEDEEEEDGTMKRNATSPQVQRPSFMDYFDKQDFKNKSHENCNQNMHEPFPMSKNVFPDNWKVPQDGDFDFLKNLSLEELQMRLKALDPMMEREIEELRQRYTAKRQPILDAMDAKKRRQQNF
# experimental.details: Kinase profiling MST2
# Format: biochemical
# condition.details: 100 micromolar inhibitor concentration; 100 is no change

{"columns": ["compound", "residual kinase activity, MST2"],
 "data": [
  ["CC(=O)Nc1nc2ccc(F)cc2s1 [Compound 03-94]", 91],
  ["CC(=O)Nc1nc2ccccc2s1 [Compound 03-32]", 88],
  ["COC(=O)c1cccc(C(=O)Nc2nc3ccc(F)cc3s2)c1 [Compound 03-110]", 88]
]}

###

# Tested on: AMPK
# experimental.details: Kinase profiling AMPK
# Type: biochemical
# condition.details: 100 micromolar inhibitor concentration; 100 is no change
residual kinase activity, AMPK overview

{"columns": ["structure", "residual kinase activity, AMPK"],
 "data": [
  ["CC(=O)Nc1nc2ccc(C(F)(F)F)cc2s1", 90],
  ["CC(=O)Nc1nc2ccc(C#N)cc2s1", 73],
  ["CC(=O)Nc1nc2cc(C(F)(F)F)ccc2s1", 75],
  ["CC(=O)Nc1nc2ccccc2s1", 107],
  ["CC(=O)Nc1nc2cc(F)ccc2s1", 73],
  ["COc1ccc2sc(NC(C)=O)nc2c1", 100],
  ["O=C(Nc1nc2ccc(O)cc2s1)c1cccnc1", 48],
  ["O=C(Nc1nc2ccc(O)cc2s1)c1ccccc1", 30],
  ["O=C(Nc1nc2cc(O)ccc2s1)c1ccccn1", 80],
  ["O=C(Nc1nc2ccc(O)cc2s1)c1ccccn1", 86]
]}

###

# subject.of.test: Aurora A (Homo sapiens)
# Sequence (O14965 whole entry): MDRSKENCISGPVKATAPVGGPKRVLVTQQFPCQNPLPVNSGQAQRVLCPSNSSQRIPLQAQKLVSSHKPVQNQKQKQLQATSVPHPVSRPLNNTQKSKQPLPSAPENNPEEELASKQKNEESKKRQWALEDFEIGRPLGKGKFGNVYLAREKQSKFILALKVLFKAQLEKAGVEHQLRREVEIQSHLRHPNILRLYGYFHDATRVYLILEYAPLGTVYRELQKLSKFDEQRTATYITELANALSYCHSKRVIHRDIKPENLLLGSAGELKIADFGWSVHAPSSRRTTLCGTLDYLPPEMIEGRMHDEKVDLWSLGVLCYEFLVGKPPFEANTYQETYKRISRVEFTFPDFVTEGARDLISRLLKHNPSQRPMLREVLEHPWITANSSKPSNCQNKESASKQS
# experimental.details: Kinase profiling Aurora A
# Format: biochemical
# condition.details: 100 micromolar inhibitor concentration; 100 is no change
residual kinase activity, Aurora A overview
measure: residual kinase activity, Aurora A

{"columns": ["structure", "subject.of.test", "numeric.result"],
 "data": [
  ["O=C(Nc1nc2ccc(O)cc2s1)c1ccncc1", "Aurora A (Homo sapiens)", 103],
  ["O=C(Nc1nc2ccc(O)cc2s1)c1cccnc1", "Aurora A (Homo sapiens)", 99],
  ["CC(=O)Nc1nc2ccccc2s1", "Aurora A (Homo sapiens)", 109],
  ["O=C(Nc1nc2cc(O)ccc2s1)c1cccnc1", "Aurora A (Homo sapiens)", 108],
  ["O=C(Nc1nc2ccc(O)cc2s1)c1ccccn1", "Aurora A (Homo sapiens)", 95]
]}

###

residual kinase activity, RSK2 overview
# subject.of.test: RSK2 (Homo sapiens, UniProt P51812)
# Sequence (P51812 whole entry, species assumed): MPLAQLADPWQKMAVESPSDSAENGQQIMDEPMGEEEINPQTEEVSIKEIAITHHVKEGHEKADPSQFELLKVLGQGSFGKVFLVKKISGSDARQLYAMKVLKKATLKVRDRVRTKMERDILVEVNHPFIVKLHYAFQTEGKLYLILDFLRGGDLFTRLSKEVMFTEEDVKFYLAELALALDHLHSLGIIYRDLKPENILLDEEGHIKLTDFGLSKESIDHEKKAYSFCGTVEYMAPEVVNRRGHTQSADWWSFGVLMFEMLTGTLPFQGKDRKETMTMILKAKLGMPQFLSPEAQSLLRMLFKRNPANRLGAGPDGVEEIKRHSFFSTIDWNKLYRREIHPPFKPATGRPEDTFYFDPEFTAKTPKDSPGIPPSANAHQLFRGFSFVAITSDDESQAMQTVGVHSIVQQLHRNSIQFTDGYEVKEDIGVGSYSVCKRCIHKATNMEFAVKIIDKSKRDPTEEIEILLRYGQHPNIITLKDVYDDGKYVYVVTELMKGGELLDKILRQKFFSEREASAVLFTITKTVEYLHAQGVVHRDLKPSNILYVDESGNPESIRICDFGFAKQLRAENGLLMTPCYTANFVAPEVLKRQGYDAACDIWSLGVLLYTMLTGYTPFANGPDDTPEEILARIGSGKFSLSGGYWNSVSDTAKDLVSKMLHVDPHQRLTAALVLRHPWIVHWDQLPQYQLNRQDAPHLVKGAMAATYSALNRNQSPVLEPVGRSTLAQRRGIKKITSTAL
# experimental.details: Kinase profiling RSK2
# Assay type: biochemical
# condition.details: 100 micromolar inhibitor concentration; 100 is no change

{"columns": ["structure", "residual kinase activity, RSK2"],
 "data": [
  ["CC(=O)Nc1ccc(C(=O)Nc2nc3cc(O)ccc3s2)cc1", 28],
  ["O=C(Nc1nc2ccc(O)cc2s1)c1ccccn1", 53],
  ["COc1ccc2sc(NC(=O)c3cccc(NC(C)=O)c3)nc2c1", 32],
  ["CC(=O)Nc1nc2ccccc2s1", 105],
  ["CC(=O)Nc1cccc(C(=O)Nc2nc3ccc(O)cc3s2)c1", 51],
  ["O=C(Nc1nc2cc(O)ccc2s1)c1cccnc1", 85],
  ["O=C(Nc1nc2cc(O)ccc2s1)c1ccccn1", 72],
  ["O=C(Nc1nc2ccc(O)cc2s1)c1cccnc1", 56],
  ["COc1ccc2sc(NC(=O)c3ccc(NC(C)=O)cc3)nc2c1", 81],
  ["O=C(Nc1nc2cc(O)ccc2s1)c1ccncc1", 71],
  ["CC(=O)Nc1nc2cc(C)ccc2s1", 96],
  ["CC(=O)Nc1ccccc1C(=O)Nc1nc2ccc(O)cc2s1", 2],
  ["O=C(Nc1nc2ccc(O)cc2s1)c1ccccc1", 34]
]}

###

# System: CK2
# experimental.details: Kinase profiling CK2
# Format: biochemical
# condition.details: 100 micromolar inhibitor concentration; 100 is no change
measure: residual kinase activity, CK2

{"columns": ["structure", "result"],
 "data": [
  ["CC(=O)Nc1nc2ccc(C(F)(F)F)cc2s1", 92],
  ["O=C(Nc1nc2ccc(F)cc2s1)c1ccccc1", 90],
  ["COc1ccc2nc(NC(=O)c3ccccc3)sc2c1", 88]
]}

###

# subject.of.test: JNK1 (Homo sapiens, UniProt P45983)
# Sequence (P45983 whole entry, species assumed): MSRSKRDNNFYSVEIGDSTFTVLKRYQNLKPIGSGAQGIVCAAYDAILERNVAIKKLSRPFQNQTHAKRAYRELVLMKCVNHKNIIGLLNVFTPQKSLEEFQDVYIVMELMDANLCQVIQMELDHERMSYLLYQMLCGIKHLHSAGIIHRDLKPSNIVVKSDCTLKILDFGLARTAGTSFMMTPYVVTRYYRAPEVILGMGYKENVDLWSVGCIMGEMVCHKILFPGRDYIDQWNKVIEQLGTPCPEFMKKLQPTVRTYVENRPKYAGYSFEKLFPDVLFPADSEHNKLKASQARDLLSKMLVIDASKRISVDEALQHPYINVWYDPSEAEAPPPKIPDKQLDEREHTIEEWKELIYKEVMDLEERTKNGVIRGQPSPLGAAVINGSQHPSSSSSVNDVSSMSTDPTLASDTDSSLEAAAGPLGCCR
# experimental.details: Kinase profiling JNK1
# Format: biochemical
# condition.details: 100 micromolar inhibitor concentration; 100 is no change
# From the text: Any value less that 25 is considered to be highly significant inhibition.
residual kinase activity, JNK1 overview

{"columns": ["structure", "residual kinase activity, JNK1"],
 "data": [
  ["CC(=O)Nc1ccccc1C(=O)Nc1nc2ccc(O)cc2s1", 92],
  ["O=C(Nc1nc2ccc(O)cc2s1)c1ccccc1", 88],
  ["COc1ccc2sc(NC(=O)c3ccccc3)nc2c1", 90]
]}

###

# subject.of.test: UniProt:Q8IWQ3
# Sequence (Q8IWQ3 whole entry, species assumed): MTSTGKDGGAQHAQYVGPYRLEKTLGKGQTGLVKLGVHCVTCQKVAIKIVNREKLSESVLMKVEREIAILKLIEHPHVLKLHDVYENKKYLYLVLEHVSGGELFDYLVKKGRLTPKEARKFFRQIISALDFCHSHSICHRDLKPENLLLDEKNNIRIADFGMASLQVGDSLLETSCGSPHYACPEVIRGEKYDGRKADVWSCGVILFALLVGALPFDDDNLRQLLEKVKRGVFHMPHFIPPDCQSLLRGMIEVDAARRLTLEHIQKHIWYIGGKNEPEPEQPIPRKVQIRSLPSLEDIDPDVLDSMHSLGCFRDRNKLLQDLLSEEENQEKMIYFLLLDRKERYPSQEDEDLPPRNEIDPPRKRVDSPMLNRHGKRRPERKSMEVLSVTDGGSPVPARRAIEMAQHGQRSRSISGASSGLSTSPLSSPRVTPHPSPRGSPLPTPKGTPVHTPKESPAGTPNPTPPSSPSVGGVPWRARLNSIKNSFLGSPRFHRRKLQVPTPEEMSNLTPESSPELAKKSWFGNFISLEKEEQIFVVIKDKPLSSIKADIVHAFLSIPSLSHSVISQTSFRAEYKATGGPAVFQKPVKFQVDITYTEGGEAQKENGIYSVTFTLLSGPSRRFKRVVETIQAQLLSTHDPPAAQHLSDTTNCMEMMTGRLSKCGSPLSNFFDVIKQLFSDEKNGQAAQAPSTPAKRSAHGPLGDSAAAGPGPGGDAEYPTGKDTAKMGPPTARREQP
# experimental.details: Kinase profiling BRSK2
# Format: biochemical
# condition.details: 100 micromolar inhibitor concentration; 100 is no change
residual kinase activity, BRSK2 overview

{"columns": ["structure", "residual kinase activity, BRSK2"],
 "data": [
  ["CC(=O)Nc1nc2ccccc2s1", 91],
  ["O=C(Nc1nc2ccc(O)cc2s1)c1ccncc1", 74],
  ["O=C(Nc1nc2ccc(O)cc2s1)c1ccccc1", 34]
]}
